Reference for the values: ChEMBL document CHEMBL3352048

test: Cytotoxicity against mouse RAW264.7 cells at 100 uM after 72 hrs by MTT assay; assay type: cell-based; settings: read-out: INH
Measured cytotoxicity at 72 h, 100 µM by item
Give the number; % is assumed, so skip it.

Would you please look over these solved cases?
>>> measvalue("O=C(Cn1cnc2ccccc2c1=O)Nc1cc(C(F)(F)F)ccc1Cl")
35.6
>>> measvalue("O=C(Cn1cnc2ccccc2c1=O)NCc1nc2ccc([N+](=O)[O-])cc2s1")
50.5
>>> measvalue("O=C(Cn1cnc2ccc(Cl)cc2c1=O)NCc1nc2ccc([N+](=O)[O-])cc2s1")
62.8
>>> measvalue("O=C(Cn1cnc2ccc(Cl)cc2c1=O)NCc1cccs1")
45.2
>>> measvalue("Cc1nc2ccccc2c(=O)n1CC(=O)Nc1ccccc1")
29.7
>>> measvalue("O=C(Cn1cnc2ccc(Cl)cc2c1=O)Nc1ccccc1")
53
>>> measvalue("Cc1nc2ccc(Cl)cc2c(=O)n1CC(=O)NCc1nc2ccc([N+](=O)[O-])cc2s1")
33.7
>>> measvalue("O=C(Cn1cnc2ccc(Cl)cc2c1=O)NCc1ccco1")
42.5
>>> measvalue("Cc1nc2ccc(Cl)cc2c(=O)n1CC(=O)NCc1ccco1")
5.37
>>> measvalue("Cc1nc2ccccc2c(=O)n1CC(=O)NCc1nc2ccc([N+](=O)[O-])cc2s1")
37.4

Then there is this compound:
# get_value(readout='cytotoxicity at 72 h, 100 µM', item= `Cc1nc2ccccc2c(=O)n1CC(=O)NCc1cccs1` )
38.6
